- Test system: Escherichia coli TOP10
- test-description: shrunken log2 fold change of peptide-encoding DNA abundance (4.5 h post-induction vs induction); higher = less antimicrobial activity (less host growth inhibition)
- recorded-conditions: time post-induction: 4.5 h; library: site-saturation at positions 5, 18, 19, 20
Everything with shrunken log2 fold change lower than -0.03 is not met; everything else, including exactly -0.03, is met.

ordered-residues	classification
RRIRLRPPRLPRPRPRPSNDPRP	met
RRIRKRPPRLPRPRPRPYVIPRP	not met
RRIRPRPPRLPRPRPRPQDRPRP	met
RRIRGRPPRLPRPRPRPPKWPRP	met
RRIRCRPPRLPRPRPRPLSWPRP	met
RRIRPRPPRLPRPRPRPLHMPRP	not met
RRIRLRPPRLPRPRPRPMVRPRP	met
RRIRERPPRLPRPRPRPEIIPRP	met
RRIRRRPPRLPRPRPRPLWIPRP	not met
RRIRDRPPRLPRPRPRPEDCPRP	met
RRIRVRPPRLPRPRPRPPEQPRP	met
RRIRFRPPRLPRPRPRPASIPRP	not met
RRIRQRPPRLPRPRPRPKYTPRP	not met
RRIRVRPPRLPRPRPRPADEPRP	met
RRIRNRPPRLPRPRPRPIWQPRP	met

###

- Tested on: Escherichia coli TOP10
- test-description: shrunken log2 fold change of peptide-encoding DNA abundance (4.5 h post-induction vs induction); higher = less antimicrobial activity (less host growth inhibition)
- recorded-conditions: time post-induction: 4.5 h; library: site-saturation at positions 5, 18, 19, 20
Catalogue of sequences with associated shrunken log2 fold change

ordered-residues	assay-system	shrunken log2 fold change
RRIRSRPPRLPRPRPRPFQDPRP	Escherichia coli TOP10	-0.01
RRIRIRPPRLPRPRPRPKCFPRP	Escherichia coli TOP10	-0.852
RRIRKRPPRLPRPRPRPYIEPRP	Escherichia coli TOP10	-0.127
RRIRFRPPRLPRPRPRPAMHPRP	Escherichia coli TOP10	0.234
RRIRWRPPRLPRPRPRPPEMPRP	Escherichia coli TOP10	0.812
RRIRCRPPRLPRPRPRPSKAPRP	Escherichia coli TOP10	0.0693
RRIRIRPPRLPRPRPRPLANPRP	Escherichia coli TOP10	-0.145
RRIRYRPPRLPRPRPRPAFRPRP	Escherichia coli TOP10	-0.287
RRIRIRPPRLPRPRPRPSQNPRP	Escherichia coli TOP10	-0.766
RRIRTRPPRLPRPRPRPCHTPRP	Escherichia coli TOP10	-0.166
RRIRGRPPRLPRPRPRPRINPRP	Escherichia coli TOP10	-0.122
RRIRRRPPRLPRPRPRPQLTPRP	Escherichia coli TOP10	0.122
RRIRCRPPRLPRPRPRPQQRPRP	Escherichia coli TOP10	0.0521
RRIRNRPPRLPRPRPRPSNWPRP	Escherichia coli TOP10	-0.203
RRIRWRPPRLPRPRPRPWCTPRP	Escherichia coli TOP10	0.118

###

- Tested on: Escherichia coli TOP10
- test-description: shrunken log2 fold change of peptide-encoding DNA abundance (4.5 h post-induction vs induction); higher = less antimicrobial activity (less host growth inhibition)
- recorded-conditions: time post-induction: 4.5 h; library: site-saturation at positions 5, 18, 19, 20
property-name: shrunken log2 fold change

ordered-residues	numeric-result
RRIRRRPPRLPRPRPRPGHLPRP	0.067
RRIRSRPPRLPRPRPRPVRSPRP	0.255
RRIRARPPRLPRPRPRPGCIPRP	0.315
RRIRARPPRLPRPRPRPGPQPRP	0.367
RRIRIRPPRLPRPRPRPPGDPRP	-0.0965
RRIRMRPPRLPRPRPRPHTSPRP	0.242
RRIRGRPPRLPRPRPRPHGDPRP	1.11
RRIRHRPPRLPRPRPRPRVKPRP	-0.00109
RRIRWRPPRLPRPRPRPDPVPRP	0.0369
RRIRYRPPRLPRPRPRPMVDPRP	-0.248
RRIRARPPRLPRPRPRPGSFPRP	0.495
RRIRDRPPRLPRPRPRPAQIPRP	0.263
RRIRDRPPRLPRPRPRPMIPPRP	-0.184
RRIRSRPPRLPRPRPRPGPKPRP	1.07
RRIRCRPPRLPRPRPRPYPAPRP	-0.53

###

- Tested on: Escherichia coli TOP10
- test-description: shrunken log2 fold change of peptide-encoding DNA abundance (4.5 h post-induction vs induction); higher = less antimicrobial activity (less host growth inhibition)
- recorded-conditions: time post-induction: 4.5 h; library: site-saturation at positions 5, 18, 19, 20
property-name: shrunken log2 fold change

ordered-residues	numeric-result
RRIRVRPPRLPRPRPRPLIPPRP	-0.406
RRIRNRPPRLPRPRPRPKKDPRP	0.0489
RRIRERPPRLPRPRPRPLMGPRP	0.247
RRIRGRPPRLPRPRPRPHMLPRP	0.142
RRIRNRPPRLPRPRPRPNSLPRP	-0.335
RRIRERPPRLPRPRPRPWGIPRP	-0.234
RRIRFRPPRLPRPRPRPSGWPRP	0.187
RRIRVRPPRLPRPRPRPNGTPRP	-0.356
RRIRARPPRLPRPRPRPMAFPRP	0.0104
RRIRCRPPRLPRPRPRPEIHPRP	-0.217
RRIRTRPPRLPRPRPRPKLDPRP	0.2
RRIRSRPPRLPRPRPRPLTIPRP	-0.201
RRIRLRPPRLPRPRPRPQVCPRP	-0.00713
RRIRDRPPRLPRPRPRPCSPPRP	0.0779
RRIRARPPRLPRPRPRPCSIPRP	-0.092

###

- Tested on: Escherichia coli TOP10
- test-description: shrunken log2 fold change of peptide-encoding DNA abundance (4.5 h post-induction vs induction); higher = less antimicrobial activity (less host growth inhibition)
- recorded-conditions: time post-induction: 4.5 h; library: site-saturation at positions 5, 18, 19, 20

ordered-residues	shrunken log2 fold change
RRIRYRPPRLPRPRPRPNTGPRP	-0.195
RRIRDRPPRLPRPRPRPNSEPRP	0.261
RRIRSRPPRLPRPRPRPVLSPRP	0.0825
RRIRYRPPRLPRPRPRPQMKPRP	-1.17
RRIRHRPPRLPRPRPRPHTRPRP	-0.174
RRIRFRPPRLPRPRPRPSPVPRP	-0.00168
RRIRYRPPRLPRPRPRPAIIPRP	-0.244
RRIRVRPPRLPRPRPRPVWEPRP	0.0761
RRIRRRPPRLPRPRPRPGHSPRP	-0.0814
RRIRNRPPRLPRPRPRPRHLPRP	-0.337
RRIRPRPPRLPRPRPRPQVGPRP	0.0207
RRIRIRPPRLPRPRPRPPIMPRP	-0.494
RRIRQRPPRLPRPRPRPPACPRP	0.162
RRIRSRPPRLPRPRPRPRPHPRP	0.151
RRIRARPPRLPRPRPRPHLWPRP	0.645
RRIRWRPPRLPRPRPRPGTIPRP	-0.283
RRIRQRPPRLPRPRPRPADEPRP	-0.101
RRIRSRPPRLPRPRPRPKIWPRP	0.141
RRIRARPPRLPRPRPRPVSDPRP	0.576
RRIRCRPPRLPRPRPRPIWAPRP	-0.0162
RRIRDRPPRLPRPRPRPCRDPRP	-0.106
RRIRNRPPRLPRPRPRPPTAPRP	0.295
RRIRLRPPRLPRPRPRPMENPRP	-0.105
RRIRYRPPRLPRPRPRPWNIPRP	-0.01
RRIRIRPPRLPRPRPRPRYDPRP	-0.285
RRIRPRPPRLPRPRPRPRNKPRP	-0.136
RRIRFRPPRLPRPRPRPKHGPRP	0.405
RRIRWRPPRLPRPRPRPSKDPRP	-0.412
RRIRERPPRLPRPRPRPTCQPRP	0.00216
RRIRNRPPRLPRPRPRPWGMPRP	-0.214
RRIRFRPPRLPRPRPRPLKCPRP	-0.189
RRIRIRPPRLPRPRPRPSIIPRP	-0.866

###

- Test system: Escherichia coli TOP10
- test-description: shrunken log2 fold change of peptide-encoding DNA abundance (4.5 h post-induction vs induction); higher = less antimicrobial activity (less host growth inhibition)
- recorded-conditions: time post-induction: 4.5 h; library: site-saturation at positions 5, 18, 19, 20
True means recorded shrunken log2 fold change is 0.03 or above; False means it is below 0.03.

ordered-residues	classification
RRIRWRPPRLPRPRPRPQMEPRP	True
RRIRNRPPRLPRPRPRPALWPRP	False
RRIRYRPPRLPRPRPRPIEKPRP	False
RRIRPRPPRLPRPRPRPICFPRP	False
RRIRMRPPRLPRPRPRPLCDPRP	True
RRIRYRPPRLPRPRPRPDWVPRP	False
RRIRCRPPRLPRPRPRPFMHPRP	False
RRIRGRPPRLPRPRPRPEWWPRP	True

###

- Test system: Escherichia coli TOP10;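 also: peptides expressed intracellularly from a pBAD plasmid library in pooled LB shake-flask culture, induced with 0.3% L-arabinose, DNA abundance read by NGS, three biological replicates, DESeq2 with apeglm shrinkage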
- test-description: shrunken log2 fold change of peptide-encoding DNA abundance (4.5 h post-induction vs induction); higher = less antimicrobial activity (less host growth inhibition)
- recorded-conditions: time post-induction: 4.5 h; library: site-saturation at positions 5, 18, 19, 20
Listed here: items and their measured shrunken log2 fold change.
property-name: shrunken log2 fold change

ordered-residues	numeric-result
RRIRNRPPRLPRPRPRPCCYPRP	-0.0141
RRIRERPPRLPRPRPRPVKYPRP	-0.0311
RRIRVRPPRLPRPRPRPMVEPRP	0.303
RRIRERPPRLPRPRPRPDDAPRP	-0.179
RRIRHRPPRLPRPRPRPLMNPRP	-0.642
RRIRNRPPRLPRPRPRPYFYPRP	-0.345
RRIRDRPPRLPRPRPRPQYEPRP	-0.025
RRIRGRPPRLPRPRPRPPDDPRP	1.34
RRIRCRPPRLPRPRPRPYNDPRP	-0.456
RRIRDRPPRLPRPRPRPTAVPRP	0.421
RRIRKRPPRLPRPRPRPHMFPRP	-0.469
RRIRARPPRLPRPRPRPEADPRP	1.53
RRIRKRPPRLPRPRPRPRRCPRP	0.444
RRIRVRPPRLPRPRPRPRWPPRP	0.534
RRIRPRPPRLPRPRPRPDIIPRP	0.00942
